Tested on: M21
Experiment: Cell cycle arrest in human M21 cells assessed as accumulation at G0/G1 phase at 5 times IC50 after 24 hrs using propidium iodide staining by flow cytometric analysis (reference value: 61%)
Assay type: functional
Listed below: Activity values for each entry.
Give the number; % is assumed, so skip it.

Below are worked cases with known answers.
| query_smiles | endpoint_unit | observed_value |
| --- | --- | --- |
| O=C1NCCN1c1ccc(S(=O)(=O)Oc2c(F)cccc2F)cc1 | % | 5 |
| Cc1cc(OS(=O)(=O)c2ccc(N3CCNC3=O)cc2)cc(C)c1C | % | 0 |
| CCOc1ccccc1OS(=O)(=O)c1ccc(N2CCNC2=O)cc1 | % | 1 |
| O=C1NCCN1c1ccc(S(=O)(=O)Oc2cccc(F)c2)cc1 | % | 7 |
| O=C1NCCN1c1ccc(S(=O)(=O)Oc2ccccc2F)cc1 | % | 18 |

Please find the next compound below.
q: Name the recorded Activity for `Cc1cc(C)c(OS(=O)(=O)c2ccc(N3CCNC3=O)cc2)cc1C` .
a: 1

----------
Below is a list of entries, each paired with its recorded IC50 value.
Test system: M21
Experiment: Antiproliferative activity against human M21 cells after 48 hrs by sulforhodamine B assay
Type: functional, cell-based
Details: M21, 48 h
Quick note: give the figure in nM, leave out the unit.

| compound | observed_value |
| --- | --- |
| COc1ccccc1OS(=O)(=O)c1ccc(N2CCNC2=O)cc1 | 130 |

q: Return reported IC50; argument: `O=C1NCCN1c1ccc(S(=O)(=O)Oc2ccccc2Cl)cc1`
a: 45

q: Reported IC50, compound `CCCCOc1ccc(OS(=O)(=O)c2ccc(N3CCNC3=O)cc2)cc1` : ____
a: 530

q: Which IC50 value is on record for `Nc1ccc(OS(=O)(=O)c2ccc(N3CCNC3=O)cc2)cc1` ?
a: 920

q: Tell me the measured IC50 of `Cc1cc(C)c(OS(=O)(=O)c2ccc(N3CCNC3=O)cc2)cc1C` , please.
a: 41

q: I'd like to know its IC50. The compound in question is `O=C1NCCN1c1ccc(S(=O)(=O)Oc2ccccc2I)cc1`
a: 40

q: Can you look up the measured IC50 of `O=C1NCCN1c1ccc(S(=O)(=O)Oc2ccc(F)cc2)cc1` for me?
a: 89

q: // returns reported IC50 for input `CCCc1ccccc1OS(=O)(=O)c1ccc(N2CCNC2=O)cc1`
a: 61

q: Form field: reported IC50 of `CCCc1ccc(OS(=O)(=O)c2ccc(N3CCNC3=O)cc2)cc1`
a: 59

q: Given the entry `CCCc1cccc(OS(=O)(=O)c2ccc(N3CCNC3=O)cc2)c1` , report its measured IC50.
a: 27

----------
Test system: MDA-MB-231
Assay: Antiproliferative activity against human MDA-MB-231 cells after 48 hrs by sulforhodamine B assay
Assay type: functional, cell-based
Settings: MDA-MB-231, 48 h
pIC50: −log10 of the molar value.
Category scheme (pIC50): bottom range = under 7, center range = from 7 up to 8, top range = 8 and over

# example entries with known answers
| query_smiles | system_name | class_label |
| --- | --- | --- |
| CC[C@]1(O)C[C@@H]2CN(CCc3c([nH]c4ccccc34)[C@@](C(=O)OC)(c3cc4c(cc3OC)N(C)[C@H]3[C@@](O)(C(=O)OC)[C@H](OC(C)=O)[C@]5(CC)C=CCN6CC[C@]43[C@@H]65)C2)C1 | MDA-MB-231 | top range |
| COc1ccc(OS(=O)(=O)c2ccc(N3CCNC3=O)cc2)cc1 | MDA-MB-231 | bottom range |
| O=C1NCCN1c1ccc(S(=O)(=O)Oc2cc(Cl)cc(Cl)c2)cc1 | MDA-MB-231 | center range |

q: Looking at `CCOc1cccc(OS(=O)(=O)c2ccc(N3CCNC3=O)cc2)c1` , which class would you pick?
a: center range

q: GET /class?item= `O=C1NCCN1c1ccc(S(=O)(=O)Oc2cccc(I)c2)cc1`
a: center range

q: Which of the defined bands does the recorded pIC50 of `O=C1NCCN1c1ccc(S(=O)(=O)Oc2cccc(Cl)c2)cc1` sit within?
a: center range

q: Entry `O=C1NCCN1c1ccc(S(=O)(=O)Oc2ccc(F)cc2)cc1` belongs to which category?
a: bottom range

q: Could you place `COc1cc2c(c(OC)c1OC)-c1ccc(OC)c(=O)cc1[C@@H](NC(C)=O)CC2` in its proper category? Many thanks.
a: top range
